target: human 5-HT6 receptor (Homo sapiens (Human)); assay: 5-HT6 radioligand binding assay (SPA format, [N-methyl-3H]-LSD); conditions: human 5-HT6 receptor membranes, 10 nM [N-methyl-3H]-LSD; Ki by Cheng-Prusoff; read-out: human 5HT6 Ki
Structures can show the parent of a compound that is named as a salt.
Ki vs 20 nM: less than gives MET; not less than gives NOT MET.

Solved entries (count: 5):
| compound | class-name |
| --- | --- |
| CS(=O)(=O)N1CCc2oc3c(Cl)cc(S(=O)(=O)c4ccccc4)cc3c2C1 | NOT MET |
| O=S(=O)(c1ccccc1)c1cc(Cl)c2oc3c(c2c1)C(CF)NCC3 (centres unmarked) [Example 87, hydrochloride] | MET |
| O=S(=O)(c1ccccc1)c1cc(Cl)c2oc3c(c2c1)CN(CCC(F)(F)F)CC3 | MET |
| C[C@@H](O)c1ccc(S(=O)(=O)c2cc(Cl)c3oc4c(c3c2)CNCC4)cc1 | MET |
| COc1cc(S(=O)(=O)c2ccc(OC(F)(F)F)cc2)cc2c3c(oc12)CCNC3 | MET |

Task: Hi there! Is Ki for O=S(=O)(c1ccc(C2CCO2)cc1)c1cc(Cl)c2oc3c(c2c1)CNCC3 (centres unmarked) below 20 nM, do you know?
Output: MET

Task: For this compound, is Ki lower than 20 nM? CNC(=O)c1cc(S(=O)(=O)c2ccccc2)cc2c3c(oc12)CCNC3 [Example 78, hydrochloride]
Output: NOT MET

Task: Ki strictly < 20 nM for this compound? N#Cc1cc(S(=O)(=O)c2ccc(Cl)cc2)cc2c3c(oc12)CCNC3
Output: MET

Task: Item COc1cc(S(=O)(=O)c2cc(Cl)cc(Cl)c2)cc2c3c(oc12)CCNC3 : Ki beneath 20 nM, strictly?
Output: MET

Task: I'd appreciate it if you could check whether Cn1ccc(-c2cc(S(=O)(=O)c3ccccc3)cc3c4c(oc23)CCNC4)n1 has Ki smaller than 20 nM.
Output: NOT MET

Task: Find out if reported Ki for Cl.O=S(=O)(c1ccccc1)c1cc(Cn2cccn2)c2oc3c(c2c1)CNCC3 [Example 75, hydrochloride] is less than 20 nM
Output: NOT MET

Task: Hello, I'm reviewing records and need to know if Ki of Cl.O=S(=O)(c1ccccc1)c1ccc2oc3c(c2c1)CNCC3 [Example 28, hydrochloride] is below 20 nM. Could you check?
Output: MET

Task: Consider O=S(=O)(c1ccccc1)c1cc(C(F)(F)F)c2oc3c(c2c1)CNCC3 . Does its Ki lie strictly below 20 nM?
Output: MET

Task: Decide: Ki of COc1cc(S(=O)(=O)c2cccc(C(C)(C)O)c2)cc2c3c(oc12)CCNC3 strictly below 20 nM?
Output: MET

Task: Decide: Ki of O=S(=O)(c1cc(Cl)c2oc3c(c2c1)CNCC3)n1ccc2ccccc21 [Example 51, hydrochloride] strictly below 20 nM?
Output: MET

Task: In plain terms, does Cl.O=S(=O)(c1cccc(Cl)c1)c1ccc2oc3c(c2c1)C1CCC(C3)N1 (centres unmarked) [Example 56, hydrochloride] come in under 20 nM for Ki?
Output: NOT MET

====

Target: human 5-HT6 receptor (Homo sapiens (Human), UniProt P50406)
Sequence (P50406 whole entry): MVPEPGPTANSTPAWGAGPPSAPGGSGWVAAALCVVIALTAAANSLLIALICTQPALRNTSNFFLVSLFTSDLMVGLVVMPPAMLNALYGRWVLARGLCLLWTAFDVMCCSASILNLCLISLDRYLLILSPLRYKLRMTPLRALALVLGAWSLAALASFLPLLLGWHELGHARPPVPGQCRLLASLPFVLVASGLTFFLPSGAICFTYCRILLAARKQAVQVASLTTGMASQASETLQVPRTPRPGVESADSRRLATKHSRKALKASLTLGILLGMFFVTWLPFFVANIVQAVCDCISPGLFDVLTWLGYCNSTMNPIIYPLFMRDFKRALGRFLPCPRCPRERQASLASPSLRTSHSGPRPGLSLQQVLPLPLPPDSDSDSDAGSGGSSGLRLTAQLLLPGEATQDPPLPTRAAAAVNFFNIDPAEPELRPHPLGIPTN
Test: 5-HT6 radioligand binding assay (SPA format, [N-methyl-3H]-LSD)
Conditions: human 5-HT6 receptor membranes, 10 nM [N-methyl-3H]-LSD; Ki by Cheng-Prusoff; hydrochloride; read-out: human 5HT6 Ki
Method: The relative affinities of the various compounds for the 5-HT6 receptor were measured in a radioligand binding assay, using a scintillation proximity assay (SPA) format. For binding analysis vs. the human receptor, samples were incubated in 50 mM Tris-HCl, pH 7.5, 5 mM MgCl2, 1 mM EDTA (4% DMSO final) with 10 nM [N-methyl-^3H]-LSD (Perkin Elmer), 2.5 ng of human 5-HT6 receptor membranes (Millipore) and 50 μg SPA beads (PVT-PEI-WGA, GE Healthcare) per well in a final volume of 0.2 mL. […]
Structures can show the parent of a compound that is named as a salt.
measure: Ki
Write the figure, then the unit, nothing else.

| compound | Ki |
| --- | --- |
| CC1NCCc2oc3c(Cl)cc(S(=O)(=O)c4ccccc4)cc3c21.Cl (single isomer, unassigned; (+)) [Example 82a, hydrochloride] | 56 nM |

Each compound below has a reported value. Please supply its Ki.
1. CC1NCCc2oc3c(Cl)cc(S(=O)(=O)c4ccccc4)cc3c21 (racemic) [Example 81a, hydrochloride]
2. CC1Cc2oc3c(Cl)cc(S(=O)(=O)c4ccccc4)cc3c2CN1.Cl (single isomer, unassigned; (-)) [Example 83a, hydrochloride]
3. CC1NCCc2oc3c(Cl)cc(S(=O)(=O)c4ccccc4)cc3c21 (single isomer, unassigned; (-)) [Example 82b, hydrochloride]
4. CC1Cc2oc3c(Cl)cc(S(=O)(=O)c4ccccc4)cc3c2CN1 (racemic) [Example 81b, hydrochloride]
5. CC1Cc2oc3c(Cl)cc(S(=O)(=O)c4ccccc4)cc3c2CN1 (single isomer, unassigned; (+)) [Example 83b, hydrochloride]
6. Cl.[O-][S+](c1ccccc1)c1cc(Cl)c2oc3c(c2c1)CNCC3 (stereo not shown) [Example 93, hydrochloride]

Output:
1. 0.35 nM
2. 25 nM
3. 0.15 nM
4. 19 nM
5. 16 nM
6. 10 nM

Values were extracted from patent US9067949B2.
